# System: NCI-H1993
# measurement description: relative viability (nuclei count vs DMSO), 5 days (fraction); higher = more cells survive
# condition details: first compound 0.1265 µM
relative viability values by entry

| molecule | relative viability |
| --- | --- |
| C[C@@H]1CN(CC(=O)Nc2ccc3c(c2)Cc2cccc(-c4cc(=O)cc(N5CCOCC5)o4)c2S3)C[C@H](C)O1 + NC(=O)Nc1cc(-c2cccc(F)c2)sc1C(=O)N[C@H]1CCCNC1 [AZD7762] (partner 0.2 µM) | 0.737 |
| COc1cc(N2CCC(C(N)=O)CC2)ccc1Nc1nc(N)c(Cl)c(Nc2ccccc2S(=O)(=O)C(C)C)n1 [HG-5-88-01] + COc1cccc2cc(-c3nc([C@H]4CC[C@H](C(=O)O)CC4)n4ncnc(N)c34)[nH]c12 [OSI-027] (partner 0.5 µM) | 0.504 |
| COc1cc(N2CCC(C(N)=O)CC2)ccc1Nc1nc(N)c(Cl)c(Nc2ccccc2S(=O)(=O)C(C)C)n1 [HG-5-88-01] + Cc1nc(NC(=O)N2CCC[C@H]2C(N)=O)sc1-c1ccnc(C(C)(C)C(F)(F)F)c1 [Alpelisib] (partner 2 µM) | 0.596 |
| Clc1ccc(Nc2nnc(Cc3ccncc3)c3ccccc23)cc1 [Vatalanib] + C[C@@H](Oc1cc(-c2cnn(C3CCNCC3)c2)cnc1N)c1c(Cl)ccc(F)c1Cl [Crizotinib] (partner 1 µM) | 0.853 |
| COc1cc(N2CCC(C(N)=O)CC2)ccc1Nc1nc(N)c(Cl)c(Nc2ccccc2S(=O)(=O)C(C)C)n1 [HG-5-88-01] + CC(C)C[C@H](NC(=O)[C@H](Cc1ccccc1)NC(=O)c1cnccn1)B(O)O [Bortezomib] (partner 0.002 µM) | 1.08 |
| COc1cc(N2CCC(C(N)=O)CC2)ccc1Nc1nc(N)c(Cl)c(Nc2ccccc2S(=O)(=O)C(C)C)n1 [HG-5-88-01] + CS(=O)(=O)CCNCc1ccc(-c2ccc3ncnc(Nc4ccc(OCc5cccc(F)c5)c(Cl)c4)c3c2)o1 [Lapatinib] (partner 2 µM) | 0.853 |
| Clc1ccc(Nc2nnc(Cc3ccncc3)c3ccccc23)cc1 [Vatalanib] + CS(=O)(=O)N1CCN(Cc2cc3nc(-c4cccc5[nH]ncc45)nc(N4CCOCC4)c3s2)CC1 [Pictilisib] (partner 1 µM) | 0.898 |
| C[C@@H]1CN(CC(=O)Nc2ccc3c(c2)Cc2cccc(-c4cc(=O)cc(N5CCOCC5)o4)c2S3)C[C@H](C)O1 + O=C(c1cc(Cc2n[nH]c(=O)c3ccccc23)ccc1F)N1CCN(C(=O)C2CC2)CC1 [Olaparib] (partner 8 µM) | 0.963 |

----------
# System: SK-LU-1
# measurement description: relative viability (nuclei count vs DMSO), 5 days (fraction); higher = more cells survive
# condition details: first compound 2.53 µM

| molecule | relative viability |
| --- | --- |
| CCCCCCCCCCCC1=C(O)C(=O)C=C(O)C1=O [Embelin] + COc1cccc2cc(-c3nc([C@H]4CC[C@H](C(=O)O)CC4)n4ncnc(N)c34)[nH]c12 [OSI-027] (partner 0.5 µM) | 0.383 |
| CCCCCCCCCCCC1=C(O)C(=O)C=C(O)C1=O [Embelin] + O=C(c1cc(Cc2n[nH]c(=O)c3ccccc23)ccc1F)N1CCN(C(=O)C2CC2)CC1 [Olaparib] (partner 8 µM) | 0.505 |
| CCCCCCCCCCCC1=C(O)C(=O)C=C(O)C1=O [Embelin] + CS(=O)(=O)N1CCN(Cc2cc3nc(-c4cccc5[nH]ncc45)nc(N4CCOCC4)c3s2)CC1 [Pictilisib] (partner 1 µM) | 0.678 |

----------
# Tested on: UMC-11
# measurement description: relative viability (nuclei count vs DMSO), 5 days (fraction); higher = more cells survive
# condition details: first compound 0.1265 µM
property label: relative viability

| compound | observed |
| --- | --- |
| COc1cc(N2CCC(C(N)=O)CC2)ccc1Nc1nc(N)c(Cl)c(Nc2ccccc2S(=O)(=O)C(C)C)n1 [HG-5-88-01] + COc1cccc2cc(-c3nc([C@H]4CC[C@H](C(=O)O)CC4)n4ncnc(N)c34)[nH]c12 [OSI-027] (partner 0.5 µM) | 0.521 |
| COc1cc(N2CCC(C(N)=O)CC2)ccc1Nc1nc(N)c(Cl)c(Nc2ccccc2S(=O)(=O)C(C)C)n1 [HG-5-88-01] + CC(=O)Nc1cccc(-n2c(=O)n(C3CC3)c(=O)c3c(Nc4ccc(I)cc4F)n(C)c(=O)c(C)c32)c1 [Trametinib] (partner 0.02 µM) | 0.861 |
| Clc1ccc(Nc2nnc(Cc3ccncc3)c3ccccc23)cc1 [Vatalanib] + C[C@]1(O)C[C@@H](c2nc(-c3ccc4ccc(-c5ccccc5)nc4c3)c3c(N)nccn32)C1 [Linsitinib] (partner 1 µM) | 0.808 |
| C[C@@H]1CN(CC(=O)Nc2ccc3c(c2)Cc2cccc(-c4cc(=O)cc(N5CCOCC5)o4)c2S3)C[C@H](C)O1 + CC1(C)CCC(c2ccc(Cl)cc2)=C(CN2CCN(c3ccc(C(=O)NS(=O)(=O)c4ccc(N[C@H](CCN5CCOCC5)CSc5ccccc5)c(S(=O)(=O)C(F)(F)F)c4)cc3)CC2)C1 [Navitoclax] (partner 0.5 µM) | 0.288 |

----------
# Tested on: NCI-H2087
# measurement description: relative viability (nuclei count vs DMSO), 5 days (fraction); higher = more cells survive
# condition details: first compound 0.04 µM
// classify: if (relative viability < 0.8) yes else no

| compound | discrete label |
| --- | --- |
| COc1cc(N2CCC(C(N)=O)CC2)ccc1Nc1nc(N)c(Cl)c(Nc2ccccc2S(=O)(=O)C(C)C)n1 [HG-5-88-01] + CS(=O)(=O)N1CCN(Cc2cc3nc(-c4cccc5[nH]ncc45)nc(N4CCOCC4)c3s2)CC1 [Pictilisib] (partner 1 µM) | no |
| C[C@@H]1CN(CC(=O)Nc2ccc3c(c2)Cc2cccc(-c4cc(=O)cc(N5CCOCC5)o4)c2S3)C[C@H](C)O1 + CS(=O)(=O)N1CCN(Cc2cc3nc(-c4cccc5[nH]ncc45)nc(N4CCOCC4)c3s2)CC1 [Pictilisib] (partner 1 µM) | no |
| C[C@@H]1CN(CC(=O)Nc2ccc3c(c2)Cc2cccc(-c4cc(=O)cc(N5CCOCC5)o4)c2S3)C[C@H](C)O1 + C[C@@H](Oc1cc(-c2cnn(C3CCNCC3)c2)cnc1N)c1c(Cl)ccc(F)c1Cl [Crizotinib] (partner 1 µM) | no |
| Clc1ccc(Nc2nnc(Cc3ccncc3)c3ccccc23)cc1 [Vatalanib] + COc1cccc2cc(-c3nc([C@H]4CC[C@H](C(=O)O)CC4)n4ncnc(N)c34)[nH]c12 [OSI-027] (partner 0.5 µM) | yes |
| C[C@@H]1CN(CC(=O)Nc2ccc3c(c2)Cc2cccc(-c4cc(=O)cc(N5CCOCC5)o4)c2S3)C[C@H](C)O1 + COc1cccc2cc(-c3nc([C@H]4CC[C@H](C(=O)O)CC4)n4ncnc(N)c34)[nH]c12 [OSI-027] (partner 0.5 µM) | no |
| COc1cc(N2CCC(C(N)=O)CC2)ccc1Nc1nc(N)c(Cl)c(Nc2ccccc2S(=O)(=O)C(C)C)n1 [HG-5-88-01] + N=C(N)NC(=N)NCCc1ccccc1 [Phenformin] (partner 250 µM) | yes |
| C[C@@H]1CN(CC(=O)Nc2ccc3c(c2)Cc2cccc(-c4cc(=O)cc(N5CCOCC5)o4)c2S3)C[C@H](C)O1 + CC(=O)Nc1cccc(-n2c(=O)n(C3CC3)c(=O)c3c(Nc4ccc(I)cc4F)n(C)c(=O)c(C)c32)c1 [Trametinib] (partner 0.02 µM) | yes |
| C[C@@H]1CN(CC(=O)Nc2ccc3c(c2)Cc2cccc(-c4cc(=O)cc(N5CCOCC5)o4)c2S3)C[C@H](C)O1 + N=C(N)NC(=N)NCCc1ccccc1 [Phenformin] (partner 250 µM) | yes |
| Clc1ccc(Nc2nnc(Cc3ccncc3)c3ccccc23)cc1 [Vatalanib] + CC(=O)c1c(C)c2cnc(Nc3ccc(N4CCNCC4)cn3)nc2n(C2CCCC2)c1=O [Palbociclib] (partner 0.5 µM) | yes |
| COc1cc(N2CCC(C(N)=O)CC2)ccc1Nc1nc(N)c(Cl)c(Nc2ccccc2S(=O)(=O)C(C)C)n1 [HG-5-88-01] + NC(=O)Nc1cc(-c2cccc(F)c2)sc1C(=O)N[C@H]1CCCNC1 [AZD7762] (partner 0.2 µM) | no |
| Clc1ccc(Nc2nnc(Cc3ccncc3)c3ccccc23)cc1 [Vatalanib] + C[C@]1(O)C[C@@H](c2nc(-c3ccc4ccc(-c5ccccc5)nc4c3)c3c(N)nccn32)C1 [Linsitinib] (partner 1 µM) | no |
| Clc1ccc(Nc2nnc(Cc3ccncc3)c3ccccc23)cc1 [Vatalanib] + NC(=O)Nc1cc(-c2cccc(F)c2)sc1C(=O)N[C@H]1CCCNC1 [AZD7762] (partner 0.2 µM) | no |
| C[C@@H]1CN(CC(=O)Nc2ccc3c(c2)Cc2cccc(-c4cc(=O)cc(N5CCOCC5)o4)c2S3)C[C@H](C)O1 + Cc1cc(Nc2cc(N3CCN(C)CC3)nc(Sc3ccc(NC(=O)C4CC4)cc3)n2)n[nH]1 [Tozasertib] (partner 0.1 µM) | yes |
| Clc1ccc(Nc2nnc(Cc3ccncc3)c3ccccc23)cc1 [Vatalanib] + CCNC(=O)c1noc(-c2cc(C(C)C)c(O)cc2O)c1-c1ccc(CN2CCOCC2)cc1 [Luminespib] (partner 0.01 µM) | yes |
